System: FB
assay_info: Euclidean distance of Cell Painting phenotypic profile (signed KS, 77 features) to DMSO centroid (dimensionless distance); 5 or 10 uM (library dependent); higher = stronger phenotypic change vs DMSO (phenoactivity)
run_conditions: 48 h
Structures can show the parent of a compound that is named as a salt.
Classify by measured Euclidean distance: Yes if it is equal to or exceeds 1, No if it is smaller.

{"molecule": "CC1(C)O[C@@H]2[C@@H](CO[C@@]3(COS(N)(=O)=O)OC(C)(C)O[C@@H]23)O1 [Topiramate]", "label_value": "No"}
{"molecule": "COc1cc(O)c2c(c1)oc(=O)c1c3cc(O)c(O)cc3oc21", "label_value": "Yes"}
{"molecule": "CN[C@H](CC(C)C)C(=O)N[C@H]1C(=O)N[C@@H](CC(N)=O)C(=O)N[C@H]2C(=O)N[C@H]3C(=O)N[C@H](C(=O)N[C@H](C(=O)O)c4cc(O)cc(O)c4-c4cc3ccc4O)[C@H](O)c3ccc(c(Cl)c3)Oc3cc2cc(c3O[C@@H]2O[C@H](CO)[C@@H](O)[C@H](O)[C@H]2O[C@H]2C[C@](C)(N)[C@H](O)[C@H](C)O2)Oc2ccc(cc2Cl)[C@H]1O [Vancomycin HCl]", "label_value": "No"}

# bool: Euclidean distance of `COc1ccc2cc(C(=O)O)ccc2c1` >= 1 Yes

# bool: Euclidean distance of `Cc1ccc(-c2ncc(Cl)cc2-c2ccc(S(C)(=O)=O)cc2)cn1` >= 1 Yes

====

Euclidean distance overview
Test system: 786-O
assay_info: Euclidean distance of Cell Painting phenotypic profile (signed KS, 77 features) to DMSO centroid (dimensionless distance); 5 or 10 uM (library dependent); higher = stronger phenotypic change vs DMSO (phenoactivity)
run_conditions: 48 h
Counter-ions that a name gives are not always drawn.
Write no unit; give the number alone.

{"molecule": "Cc1ccc(-c2c(-c3nn(C)c4ncnc(N5CC[C@H](N6CCCCC6)C5)c34)cnn2C)cc1", "target_entity": "786-O", "Euclidean distance": 0.748}
{"molecule": "C[N+](C)(C)CC(=O)O", "target_entity": "786-O", "Euclidean distance": 1.1}
{"molecule": "O=C(O)COc1nn(Cc2ccccc2)c2ccccc12", "target_entity": "786-O", "Euclidean distance": 1.07}
{"molecule": "[O-][n+]1cccc(-c2nc3c(Cl)cccc3cc2[C@@H](Nc2ncnc3cccnc23)C(F)(F)F)c1", "target_entity": "786-O", "Euclidean distance": 1.2}
{"molecule": "CC(=O)OC(C)OC(=O)C(C)c1ccc(-c2ccccc2)c(F)c1 (configuration not stated)", "target_entity": "786-O", "Euclidean distance": 1.28}

For Cc1cnc(C(=O)NCCc2ccc(S(=O)(=O)NC(=O)NC3CCCCC3)cc2)cn1 [Glipizide] , write its Euclidean distance. 1.39

For CO/N=C(\C(=O)N[C@@H]1C(=O)N2C(C(=O)O)=C(COC(C)=O)CS[C@H]12)c1csc(N)n1 [Cefotaxime sodium] , write its Euclidean distance. 1.09

For CCCCCCCCCCCCCCCC(=O)O[C@@H]1[C@@H](O)[C@@H](O)[C@@H]([C@H](NC(=O)[C@@H]2C[C@@H](CCC)CN2C)[C@H](C)Cl)O[C@@H]1SC [Clindamycin palmitate HCl] , write its Euclidean distance. 1.39

====

Euclidean distance overview
System: A549
assay_info: Euclidean distance of Cell Painting phenotypic profile (signed KS, 77 features) to DMSO centroid (dimensionless distance); 5 or 10 uM (library dependent); higher = stronger phenotypic change vs DMSO (phenoactivity)
run_conditions: 48 h
Write no unit; give the number alone.

Quote A549 Euclidean distance for entry CCn1cc(C(=O)O)c(=O)c2cc(F)c(N3CCNCC3)nc21 [Enoxacin Sesquihydrate] . 1.38

Quote A549 Euclidean distance for entry `C=C1CC/C=C(/C)CC[C@@H]2[C@@H]1CC2(C)C` . 0.652

Quote A549 Euclidean distance for entry CNC(CC(=O)O)C(=O)O (stereo not drawn) . 1.26

Quote A549 Euclidean distance for entry `N#Cc1cnc(Nc2cc(NC[C@H]3CNCCO3)c(C(F)(F)F)cn2)cn1` . 2.16

Quote A549 Euclidean distance for entry `O=C1NC(=O)/C(=C/c2ccc3c(c2)OC(F)(F)O3)S1` . 1.7

Quote A549 Euclidean distance for entry C1=N/C2=N/c3ccc(OCCN4CCCC4)c(c3)COC/C=C/COCc3cccc(c3)C(=C1)N2 [Pacritinib (SB1518)] . 3.52

Quote A549 Euclidean distance for entry O=C(O)c1cc(=O)c2c(OCC(O)COc3cccc4oc(C(=O)O)cc(=O)c34)cccc2o1 [Disodium Cromoglycate] . 0.486

Quote A549 Euclidean distance for entry `CCOc1cc2ncc(C#N)c(Nc3ccc(OCc4ccccn4)c(Cl)c3)c2cc1NC(=O)/C=C/CN(C)C` . 2.39

====

System: 786-O
assay_info: Euclidean distance of Cell Painting phenotypic profile (signed KS, 77 features) to DMSO centroid (dimensionless distance); 5 or 10 uM (library dependent); higher = stronger phenotypic change vs DMSO (phenoactivity)
run_conditions: 48 h
Structures can show the parent of a compound that is named as a salt.
Classify by measured Euclidean distance: true if it is equal to or exceeds 2, false if it is smaller.

# bool: Euclidean distance of `COc1ccc(F)c(F)c1C(=O)c1cnc(NC2CCN(S(C)(=O)=O)CC2)nc1N` >= 2 true

# bool: Euclidean distance of `C=CC(=O)Nc1cccc(Oc2nc(Nc3ccc(N4CCN(C)CC4)cc3)ncc2Cl)c1` >= 2 true

# bool: Euclidean distance of O=C(O[C@@H]1Cc2c(O)cc(O)cc2O[C@@H]1c1cc(O)c(O)c(O)c1)c1cc(O)c(O)c(O)c1 [(-)-Epigallocatechin Gallate] >= 2 false

# bool: Euclidean distance of CN(C)CCC(c1ccc(Cl)cc1)c1ccccn1 (stereo not drawn) [Chlorpheniramine Maleate] >= 2 false

# bool: Euclidean distance of `Clc1ccc(C2(c3ccc(-c4cn[nH]c4)cc3)CCNCC2)cc1` >= 2 true

# bool: Euclidean distance of `Cc1[nH]c(/C=C2\C(=O)Nc3ccc(S(=O)(=O)Cc4c(Cl)cccc4Cl)cc32)c(C)c1C(=O)N1CCC[C@@H]1CN1CCCC1` >= 2 true

# bool: Euclidean distance of C#CCN[C@@H]1CCc2ccccc21 [Rasagiline Mesylate] >= 2 false

# bool: Euclidean distance of `COc1ccc(-c2nc(N3CCOCC3)c3sc(CN(C)c4ncc(C(=O)NO)cn4)cc3n2)cn1` >= 2 true

====

System: A549
assay_info: Euclidean distance of Cell Painting phenotypic profile (signed KS, 77 features) to DMSO centroid (dimensionless distance); 5 or 10 uM (library dependent); higher = stronger phenotypic change vs DMSO (phenoactivity)
run_conditions: 48 h
Euclidean distance overview

{"compound": "CCOC(=O)C1=C[C@@H](OC(CC)CC)[C@H](NC(C)=O)[C@@H](N)C1 [Oseltamivir Phosphate]", "target_entity": "A549", "Euclidean distance": 1.2}

For `O=C(NCCN1CCOCC1)c1ccc(Cl)cc1` , write its Euclidean distance. 1.34

For C[C@]12CC[C@@H]3c4ccc(O)cc4CC[C@H]3[C@@H]1CC[C@@H]2OC(=O)CCC1CCCC1 [Estradiol Cypionate] , write its Euclidean distance. 1.56

For `OC[C@H]1O[C@@H](Oc2ccc(O)cc2)[C@H](O)[C@@H](O)[C@@H]1O` , write its Euclidean distance. 0.916

====

Test system: OVCAR4
assay_info: Euclidean distance of Cell Painting phenotypic profile (signed KS, 77 features) to DMSO centroid (dimensionless distance); 5 or 10 uM (library dependent); higher = stronger phenotypic change vs DMSO (phenoactivity)
run_conditions: 48 h
measure_name: Euclidean distance
Write no unit; give the number alone.

Worked set:
{"compound": "O=C(NOC[C@H](O)CO)c1ccc(F)c(F)c1Nc1ccc(I)cc1F", "target_entity": "OVCAR4", "Euclidean distance": 2.63}
{"compound": "CCN1CCN(c2cc3c(cc2F)c(=O)c(C(=O)O)cn3C2CC2)CC1", "target_entity": "OVCAR4", "Euclidean distance": 1.67}

Quote OVCAR4 Euclidean distance for entry `CS(=O)(=O)N1CCN(Cc2cc3nc(-c4cccc5[nH]ncc45)nc(N4CCOCC4)c3s2)CC1` . 1.83

Quote OVCAR4 Euclidean distance for entry O=C(Nc1ccccc1)c1ccccc1O [Salicylanilide] . 0.892

Quote OVCAR4 Euclidean distance for entry `NC(=O)NCCC[C@H](N)C(=O)O` . 0.761

Quote OVCAR4 Euclidean distance for entry `COC(=O)N[C@H](C(=O)N1CCC[C@H]1c1ncc(-c2ccc(-c3ccc(-c4cnc([C@@H]5CCCN5C(=O)[C@@H](NC(=O)OC)C(C)C)[nH]4)cc3)cc2)[nH]1)C(C)C` . 1.5

Quote OVCAR4 Euclidean distance for entry `O=c1ccc2ccccc2o1` . 1.2

Quote OVCAR4 Euclidean distance for entry `CC(C)c1ccc(NC(=O)Cn2cnc3c2c(=O)n(C)c(=O)n3C)cc1` . 1.16

Quote OVCAR4 Euclidean distance for entry CC(=O)N1CCN(c2ccc(OCC3COC(Cn4ccnc4)(c4ccc(Cl)cc4Cl)O3)cc2)CC1 (centres undefined) . 0.644
